# TGT: T1, IL10Rα and IL2Rγ on human primary cells (CD8 T cells, CD4 T cells, monocytes) (human) (UniProt Q13651)
# T1 sequence (looked up) 1: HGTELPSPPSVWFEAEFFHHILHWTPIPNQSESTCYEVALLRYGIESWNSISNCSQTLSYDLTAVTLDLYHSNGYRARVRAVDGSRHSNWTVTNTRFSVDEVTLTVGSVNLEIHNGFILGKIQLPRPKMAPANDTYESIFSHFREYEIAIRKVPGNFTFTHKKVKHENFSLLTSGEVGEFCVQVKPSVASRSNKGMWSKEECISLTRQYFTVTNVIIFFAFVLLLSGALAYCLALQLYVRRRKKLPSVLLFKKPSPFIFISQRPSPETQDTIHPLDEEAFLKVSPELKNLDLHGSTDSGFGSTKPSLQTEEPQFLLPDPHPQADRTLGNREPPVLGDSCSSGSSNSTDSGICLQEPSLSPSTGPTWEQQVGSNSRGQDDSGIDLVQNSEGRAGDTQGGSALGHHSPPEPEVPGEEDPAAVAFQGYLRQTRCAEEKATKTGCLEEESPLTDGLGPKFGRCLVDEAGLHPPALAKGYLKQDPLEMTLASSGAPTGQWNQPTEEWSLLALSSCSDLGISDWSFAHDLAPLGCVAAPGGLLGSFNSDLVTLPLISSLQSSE
# T1 sequence (looked up) 2: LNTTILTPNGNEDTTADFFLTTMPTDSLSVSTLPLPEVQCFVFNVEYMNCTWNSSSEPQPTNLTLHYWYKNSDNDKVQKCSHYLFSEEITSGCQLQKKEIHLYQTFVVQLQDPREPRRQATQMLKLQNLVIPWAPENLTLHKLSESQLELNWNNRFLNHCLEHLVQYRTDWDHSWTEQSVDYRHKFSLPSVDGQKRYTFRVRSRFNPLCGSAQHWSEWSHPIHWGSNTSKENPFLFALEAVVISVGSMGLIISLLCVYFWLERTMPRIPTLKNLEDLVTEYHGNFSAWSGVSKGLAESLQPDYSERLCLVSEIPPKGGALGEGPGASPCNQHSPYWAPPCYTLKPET
# TEST_NAME: cell-based or functional assay
QUANTITY_MEASURED: pSTAT3 (MFI) in monocytes at 0.01 µM
Provide only the numeric value, understood in MFI.

Challenge: Form field: reported pSTAT3 (MFI) in monocytes at 0.01 µM of hIL10Ra_VHH14-hIL2Rg_VHH19, linker GGGSGGGS, tag his (bispecific antibody, not shown: small tags and cut ends) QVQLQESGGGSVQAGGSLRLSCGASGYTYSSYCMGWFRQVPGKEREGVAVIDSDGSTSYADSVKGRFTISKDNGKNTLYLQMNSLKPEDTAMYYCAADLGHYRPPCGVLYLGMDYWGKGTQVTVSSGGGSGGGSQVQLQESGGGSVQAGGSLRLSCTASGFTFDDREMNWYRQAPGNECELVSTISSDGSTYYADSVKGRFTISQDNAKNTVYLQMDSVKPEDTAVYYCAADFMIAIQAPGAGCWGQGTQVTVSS
Response given: 4360

Challenge: Quick one: hIL10Ra_VHH14-hIL2Rg_VHH19, no linker, tag his (bispecific antibody, not shown: small tags and cut ends) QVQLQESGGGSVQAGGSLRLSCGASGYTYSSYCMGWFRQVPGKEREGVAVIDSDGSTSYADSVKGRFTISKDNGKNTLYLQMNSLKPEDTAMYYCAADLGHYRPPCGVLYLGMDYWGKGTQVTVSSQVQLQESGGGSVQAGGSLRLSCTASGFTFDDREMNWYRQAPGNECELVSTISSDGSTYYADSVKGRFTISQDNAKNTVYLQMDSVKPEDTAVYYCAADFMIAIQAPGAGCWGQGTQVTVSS
Response given: 4420

Challenge: Now try hIL10Ra_VHH14-hIL2Rg_VHH19, linker GGGS, tag his (bispecific antibody, not shown: small tags and cut ends) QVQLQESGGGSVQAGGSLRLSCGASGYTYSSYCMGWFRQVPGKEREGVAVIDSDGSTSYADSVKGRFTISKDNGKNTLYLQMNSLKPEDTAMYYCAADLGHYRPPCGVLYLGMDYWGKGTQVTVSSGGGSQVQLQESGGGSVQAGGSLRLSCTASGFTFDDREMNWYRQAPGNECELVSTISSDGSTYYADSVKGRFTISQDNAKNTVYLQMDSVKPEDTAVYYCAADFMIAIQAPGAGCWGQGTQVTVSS .
Response given: 4360
